Each entry below lists one item and its recorded pIC50 value.
- TEST_SYSTEM: T1, human FM3 (NMUR1) (human)
- T1 chain: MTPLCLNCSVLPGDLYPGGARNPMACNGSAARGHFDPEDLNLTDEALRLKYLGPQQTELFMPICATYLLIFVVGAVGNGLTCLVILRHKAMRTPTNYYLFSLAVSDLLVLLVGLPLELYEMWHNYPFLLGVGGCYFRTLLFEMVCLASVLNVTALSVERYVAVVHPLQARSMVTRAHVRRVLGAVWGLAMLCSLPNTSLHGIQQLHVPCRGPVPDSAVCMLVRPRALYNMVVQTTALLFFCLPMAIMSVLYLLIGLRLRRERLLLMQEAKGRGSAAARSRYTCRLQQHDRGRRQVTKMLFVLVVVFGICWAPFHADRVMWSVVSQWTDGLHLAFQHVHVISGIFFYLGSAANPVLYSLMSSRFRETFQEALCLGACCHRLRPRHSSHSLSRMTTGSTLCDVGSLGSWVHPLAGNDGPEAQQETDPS
- ASSAY_METHOD_TEXT: competition with 125I-NMU8, human FM3/CHO membrane fraction, filter binding
The star is where a group is joined. AMBz = omega-aminocarboxylic acid linker (structure only drawn); Traut's reagent = N=C(CCCS)*; AU = not defined here
Keep it numeric: pIC50 is minus log10 of the concentration in mol/L.

BINDER: {(PEG20k)2-AU}-YFLFRPRN-NH2 (reading uncertain; also: printed as (PEG20k)2(AU)-NMU-8) [(PEG20k)2(AU)-NMU-8]
pIC50: 6.48
--
BINDER: {PEG‑maleimide 30 kDa-Traut's reagent}-YFLFRPRN-NH2 [PEG30k(Traut)-NMU-8]
pIC50: 8.19

Field: next binder
So what does the record say about pIC50 for {PEG 30 kDa-AMBz}-YFLFRPRN-NH2 [PEG30k(AMBz)-NMU-8] ?
7.12

From: patent US20100286035A1
